The entries below are paired with their reported IC50 (neutralization).
- system: HIV-1 Env of isolate MGRM-D-020 (subtype D) (HIV-1)
- assay: cell-based or functional assay
endpointLabel: IC50 (neutralization)

>>> result("PGT-130 (antibody, V domains shown) VH: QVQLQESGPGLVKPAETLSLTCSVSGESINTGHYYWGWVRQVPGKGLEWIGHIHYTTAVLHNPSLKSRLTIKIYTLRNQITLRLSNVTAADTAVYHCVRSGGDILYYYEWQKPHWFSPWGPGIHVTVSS VL: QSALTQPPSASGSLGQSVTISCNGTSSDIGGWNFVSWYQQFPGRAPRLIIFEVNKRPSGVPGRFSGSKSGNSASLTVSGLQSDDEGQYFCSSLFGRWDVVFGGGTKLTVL")
"24.7 µg/mL"
>>> result("PGT-131 (antibody, V domains shown) VH: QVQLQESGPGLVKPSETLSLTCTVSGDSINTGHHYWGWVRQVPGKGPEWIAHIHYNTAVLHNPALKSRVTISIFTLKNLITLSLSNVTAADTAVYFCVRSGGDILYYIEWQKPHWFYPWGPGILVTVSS VL: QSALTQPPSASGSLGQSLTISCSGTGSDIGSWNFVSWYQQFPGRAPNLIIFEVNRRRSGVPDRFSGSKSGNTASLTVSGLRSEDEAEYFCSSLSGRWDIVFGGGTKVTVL")
"> 50 µg/mL"
>>> result("PGT-136 (antibody, V domains shown) VH: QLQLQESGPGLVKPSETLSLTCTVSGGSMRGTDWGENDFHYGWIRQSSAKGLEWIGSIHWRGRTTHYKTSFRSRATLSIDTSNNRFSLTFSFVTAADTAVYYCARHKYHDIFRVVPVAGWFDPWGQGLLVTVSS VL: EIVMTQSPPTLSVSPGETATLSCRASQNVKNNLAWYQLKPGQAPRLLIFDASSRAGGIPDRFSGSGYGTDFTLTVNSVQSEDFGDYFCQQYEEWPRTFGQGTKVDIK")
"> 50 µg/mL"

Where do these numbers come from? They come from patent US20160264649A1.
